- System: ALDH2 (Homo sapiens, UniProt P05091)
- Construct: His-tag (N); made in house; host or cells: E. coli BL21
- Sequence (P05091 18-517): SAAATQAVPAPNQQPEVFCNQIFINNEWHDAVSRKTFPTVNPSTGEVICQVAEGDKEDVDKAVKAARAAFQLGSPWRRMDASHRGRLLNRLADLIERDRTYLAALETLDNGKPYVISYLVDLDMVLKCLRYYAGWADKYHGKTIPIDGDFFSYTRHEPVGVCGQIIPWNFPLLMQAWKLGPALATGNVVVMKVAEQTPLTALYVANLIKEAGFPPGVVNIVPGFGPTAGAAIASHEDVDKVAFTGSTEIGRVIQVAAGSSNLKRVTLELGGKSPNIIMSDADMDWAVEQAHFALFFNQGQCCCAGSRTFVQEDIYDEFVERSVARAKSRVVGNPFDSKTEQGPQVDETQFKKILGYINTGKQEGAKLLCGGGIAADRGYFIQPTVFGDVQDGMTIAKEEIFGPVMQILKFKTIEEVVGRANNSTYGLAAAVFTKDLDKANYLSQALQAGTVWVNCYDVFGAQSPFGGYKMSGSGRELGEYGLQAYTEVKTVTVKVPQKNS
- Test method notes: ALDH2 activity with 20 μM of the compound (Table 3)
- Format: biochemical
- Test conditions: 20 μM compound
Recorded metric: activity at 20 µM

Reference set, count: 4
- Query smiles: "COc1ccc(CNC(=O)c2cc(-c3ccncc3CO)ccc2OCC2CC2)cc1F"
  Reported result: "> 250%"
- Query smiles: "O=C(NCc1ccc(Cl)cc1)c1cc(-c2ccccc2CO)cnc1OCC1CC1"
  Reported result: "100 to 150%"
- Query smiles: "CCOc1ccc(-c2ncccc2CO)cc1C(=O)NCc1ccc(OC)c(F)c1"
  Reported result: "150 to 250%"
- Query smiles: "COc1ccc(CNC(=O)c2cc(-c3ccccc3CCO)cnc2OCC2CC2)cc1F"
  Reported result: "100 to 150%"

Let us examine a further case.
Task: // returns reported activity at 20 µM for input COc1ccc(CNC(=O)c2cc(-c3nc[nH]c3CO)ccc2OCC2CC2)cc1F
Result: 150 to 250%
